# pIC50 listing for each entry below
systemName: SARS-CoV-2 3CL protease (Severe acute respiratory syndrome coronavirus 2, UniProt P0DTD1)
assayInfo: Inhibitory activity test against SARS-CoV-2 3CL proteases
Format: biochemical
conditions: read-out: IC50 (50% SARS-CoV-2 3CL protease inhibitory concentration)
pIC50: −log10 of the molar value.

compound	pIC50
[2H]C([2H])([2H])O[C@@H]1CCN(c2cc3c(c(OC)n2)c(=O)n(-c2cncc(Cl)c2)c(=O)n3-c2ccc(F)c(F)c2)C1	> 7.00

What value of pIC50 has been reported for the following compound? N#Cc1ccc(Cl)c(-c2cc3c(c(=O)n(-c4cnc5ccccn45)c(=O)n3Cc3cc(F)c(F)c(F)c3)c3nccnc23)c1 > 7.00

Query (compound): COc1nc2c(=O)n(Cc3ncn(C)n3)c(=O)n(Cc3cc(Cl)c(F)cc3C)c2cc1-c1nc(C(C)(C)O)ccc1Cl ; field requested: pIC50 > 7.00

Reported pIC50, compound C=C(C)c1cc2c(c(OC)n1)c(=O)n(-c1cnc3cc(F)ccn13)c(=O)n2-c1ccc(F)c(Cl)c1 : ____ 7.96

# get_value(readout='pIC50', item= COc1nc(N2C[C@@H](F)[C@@H](OC)C2)cc2c1c(=O)n(-c1cnc3cc(F)ccn13)c(=O)n2-c1ccc(F)c(Cl)c1 ) > 7.00

May I ask what pIC50 has been recorded for O=c1[nH]cccc1Cn1c(=O)c2c(n(Cc3cc(F)c(F)c(F)c3)c1=O)CCCC2 ? 6.35

Item Cc1cncc(-n2c(=O)c3c(F)cc(-c4cc(CO)ccc4Cl)cc3n(Cc3cc(F)c(F)c(F)c3)c2=O)c1 has what recorded pIC50? > 7.00

Entry Cn1cnc(Cn2c(=O)c3c4nccnc4c(-c4cc5c(cc4Cl)NC(=O)C5)cc3n(Cc3cc(F)c(F)c(F)c3)c2=O)n1 : reported pIC50 = ? > 7.00

What does the data say about its pIC50? Entry: Cc1cncc(-n2c(=O)c3c(Cl)cc(-c4cc(C#N)ccc4Cl)cc3n(Cc3ccc(F)c(C#N)c3)c2=O)c1 > 7.00

Would you mind telling me what pIC50 value was observed for COc1cc(N2C[C@H]3C[C@@H]2CN3)cc2c1c(=O)n(Cc1ncn(C)n1)c(=O)n2Cc1cc(F)c(F)c(F)c1 ? 8.66

I have this compound here, Cn1cnc(Cn2c(=O)c3c(F)cc(-c4cc5c(cc4Cl)NC(=O)C5)cc3n(Cc3cc(F)c(F)c(Cl)c3)c2=O)n1 , and I need its recorded pIC50. > 7.00

Please give the measured pIC50 for this compound: COc1nc(N2CC[C@@H](OC)C2)cc2c1c(=O)n(-c1cnc3cc(F)ccn13)c(=O)n2Cc1cc(F)c(F)c(Cl)c1 > 7.00

Fill in the blank: the reported pIC50 of COc1cc(-c2cc(C#N)ccc2Cl)cc2c1c(=O)n(-c1cncc(C)c1)c(=O)n2Cc1cc(F)c(F)c(C#N)c1 is ____. 8.92

Which pIC50 value is on record for COc1nc(N2CCC2)cc2c1c(=O)n(-c1cnc3cc(F)ccn13)c(=O)n2-c1ccc(F)c(Cl)c1 ? > 7.00

Look up pIC50 for this compound: COc1nc2cc(-c3cc(OC)c4c(=O)n(Cc5ncn(C)n5)c(=O)n(Cc5cc(F)c(F)c(F)c5)c4c3)c(Cl)cc2[nH]1 8.19

Suppose we examine the compound COc1nc(N2CC[C@@H](F)C2)cc2c1c(=O)n(-c1cnc3cc(F)ccn13)c(=O)n2-c1ccc(F)c(Cl)c1 ; what pIC50 value has been reported? 8.85
